Protein target, amino acids: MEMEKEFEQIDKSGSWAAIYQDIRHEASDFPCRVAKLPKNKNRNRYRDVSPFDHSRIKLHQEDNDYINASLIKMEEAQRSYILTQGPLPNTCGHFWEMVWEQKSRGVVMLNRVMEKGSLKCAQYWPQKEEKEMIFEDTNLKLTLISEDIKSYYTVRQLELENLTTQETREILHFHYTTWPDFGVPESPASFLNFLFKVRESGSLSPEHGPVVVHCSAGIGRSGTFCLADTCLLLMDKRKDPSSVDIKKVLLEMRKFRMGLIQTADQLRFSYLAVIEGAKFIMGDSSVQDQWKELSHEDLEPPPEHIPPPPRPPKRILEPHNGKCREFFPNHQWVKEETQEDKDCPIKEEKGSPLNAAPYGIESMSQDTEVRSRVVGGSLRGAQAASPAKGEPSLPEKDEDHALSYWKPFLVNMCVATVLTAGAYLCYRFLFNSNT
PROPERTY_MEASURED: IC50 (nM)
Dear colleague, please return just the value in nM, with no unit written.

QUERY: Quick one: IC50 of CN1CCN(CC(=O)Nc2ccc(S(=O)(=O)Nc3ncccn3)cc2)CC1 ?
RESULT: 570

QUERY: Which value of IC50 has been reported for CC1O/C(=N\c2ccc(S(=O)(=O)Nc3ncccn3)cc2)N(c2ccccc2)C1=O (stereo not drawn) in the records?
RESULT: 1950

QUERY: Fill in: IC50 of CC1S/C(=N\c2ccc(S(=O)(=O)Nc3ncccn3)cc2)N(c2ccccc2)C1=O (stereo not drawn) is ___
RESULT: 1890

====

# STUDY_SYSTEM: Tyrosine-protein phosphatase non-receptor type 1 (Homo sapiens, UniProt P18031)
pIC50: −log10 of the molar value.
Mark no (0) for pIC50 values under 6, and yes (1) for everything at or above.

QUERY: Could you tell me if the measured pIC50 of CC/N=C1\SCC(=O)N1c1ccc(S(=O)(=O)Nc2ncccn2)cc1 reaches 6 or more?
RESULT: no (0)

QUERY: Does CCc1ccc(CCOc2ccc(CC3SC(=O)NC3=O)cc2)nc1 (stereo not given) have a reported pIC50 of at least 6?
RESULT: yes (1)

QUERY: Confirm if pIC50 reported for the molecule N=C1SCC(=O)N1c1ccc(S(=O)(=O)Nc2ncccn2)cc1 is 6 or above.
RESULT: no (0)

QUERY: Evaluate O=C1CS/C(=N\c2ccccc2)N1c1ccc(S(=O)(=O)Nc2ncccn2)cc1 : pIC50 at minimum 6?
RESULT: no (0)

QUERY: Does CCN1C(=O)CS/C1=N\c1ccc(S(=O)(=O)Nc2ncccn2)cc1 have a reported pIC50 of at least 6?
RESULT: yes (1)

QUERY: Does O=C(CN1CCN(c2ccccc2)CC1)Nc1ccc(S(=O)(=O)Nc2ncccn2)cc1 have a reported pIC50 of at least 6?
RESULT: no (0)

====

PROPERTY_MEASURED: pIC50
// returns pIC50 (minus log10 of molar concentration), number only

QUERY: Give the reported pIC50 for COC(=O)CC[C@@H](C)[C@H]1CC[C@H]2[C@@H]3[C@H](O)C[C@H]4C[C@H](NCCCCNCc5ccccn5)CC[C@]4(C)[C@H]3CC[C@]12C (system: UniProtKB P18031).
RESULT: 7.00

====

PROPERTY_MEASURED: IC50 (µM)
// note: answer is a bare numeric in µM

QUERY: Notebook: pull reported IC50 for Tyrosine-protein phosphatase non-receptor type 1 (Homo sapiens, UniProt P18031), entry O=C(O)c1ccc(CN2C(=O)S/C(=C\c3ccc(OCc4ccccc4)cc3)C2=O)cc1
RESULT: 1.3

====

Consider the following compounds; for each one, report its pIC50.
# STUDY_SYSTEM: UniProt P18031
# Sequence (P18031 whole entry): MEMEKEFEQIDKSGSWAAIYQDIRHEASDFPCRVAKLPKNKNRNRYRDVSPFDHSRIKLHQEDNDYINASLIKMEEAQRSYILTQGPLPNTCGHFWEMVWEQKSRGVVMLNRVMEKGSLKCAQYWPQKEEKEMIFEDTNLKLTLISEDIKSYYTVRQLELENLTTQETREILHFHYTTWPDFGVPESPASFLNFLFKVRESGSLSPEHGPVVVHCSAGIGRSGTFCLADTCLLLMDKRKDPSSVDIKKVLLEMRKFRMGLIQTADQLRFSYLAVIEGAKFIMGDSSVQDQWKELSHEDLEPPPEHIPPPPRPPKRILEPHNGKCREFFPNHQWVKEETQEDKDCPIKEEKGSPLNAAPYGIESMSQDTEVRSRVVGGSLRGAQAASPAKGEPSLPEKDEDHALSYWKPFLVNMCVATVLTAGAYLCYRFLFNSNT
# pIC50 = -log10(concentration in molar units)

QUERY: What value of measured pIC50 is listed for CC(=O)C1=CC(=O)N(c2ccc(S(=O)(=O)Nc3ncccn3)cc2)C1=O ?
RESULT: 6.08

QUERY: Can you share its pIC50? I mean this compound: N#CC1=CC(=O)N(c2ccc(S(=O)(=O)Nc3ncccn3)cc2)C1=O
RESULT: 6.14

QUERY: Given O=S(=O)(Nc1ncccn1)c1ccc(NCc2nc3ccccc3[nH]2)cc1 , state its recorded pIC50.
RESULT: 6.17

QUERY: Item CCN1C(=O)C(C)S/C1=N\c1ccc(S(=O)(=O)Nc2ncccn2)cc1 (centres undefined) has what recorded pIC50?
RESULT: 6.15

Data provenance is ChEMBL document CHEMBL6177919.
